# REPORTED CONDITIONS: 288.15 K; 40000 kPa; Liquid; Vibrating tube method
OBSERVATION TYPE: mass density (kg/m3)
Numbers only, in kg/m3.

Solved cases below.
- TEST SMILES: "CCCO"
  OBSERVATION TYPE: "mass density"
  UNITS: "kg/m3"
  MEAS VALUE: 834.7
- TEST SMILES: "CCCCCCCCCCO"
  OBSERVATION TYPE: "mass density"
  UNITS: "kg/m3"
  MEAS VALUE: 853.5
- TEST SMILES: "CCCCCCO"
  OBSERVATION TYPE: "mass density"
  UNITS: "kg/m3"
  MEAS VALUE: 845.5
- TEST SMILES: "CCCCCO"
  OBSERVATION TYPE: "mass density"
  UNITS: "kg/m3"
  MEAS VALUE: 842.4
- TEST SMILES: "CCCCO"
  OBSERVATION TYPE: "mass density"
  UNITS: "kg/m3"
  MEAS VALUE: 839

Provide mass density for all items below, preserving their order.
1. CCCCCCCO
2. CCCCCCCCCO
3. CCO
4. CCCCCCCCO

RESULT:
848.2
851.6
823.1
850.5

* * *

# REPORTED CONDITIONS: 348.15 K; 55000 kPa; Liquid; Vibrating tube method
OBSERVATION TYPE: mass density (kg/m3)
Give bare numbers, in kg/m3.

- MOLECULE: "CCCCCCCO [heptan-1-ol]"
  mass density (kg/m3): 820.2

Provide mass density for all items below, preserving their order.
1. CCO [ethanol]
2. CCCCCCCCCCCO [1-undecanol]
3. CCCCCCCCCO [nonan-1-ol]
4. CCCCO [butan-1-ol]
5. CCCCCO [pentan-1-ol]

RESULT:
[790.5, 828.1, 824.4, 809, 813.3]

Provide mass density for all items below, preserving their order.
1. CCCCCCO [hexan-1-ol]
2. CCCCCCCCO [octan-1-ol]

RESULT:
[817, 822.7]

Provide mass density for all items below, preserving their order.
1. CCCO [propan-1-ol]
2. CCCCCCCCCCO [decan-1-ol]

RESULT:
1. 803.5
2. 826.4

* * *

# REPORTED CONDITIONS: 278.15 K; 10000 kPa; Liquid; Vibrating tube method
OBSERVATION TYPE: mass density (kg/m3)
Answers are plain numbers, in kg/m3.

Solved cases below.
- TEST SMILES: "CCCCCCCO"
  UNITS: "kg/m3"
  mass density: 838.3
- TEST SMILES: "CCCO"
  UNITS: "kg/m3"
  mass density: 822.8

Provide mass density for all items below, preserving their order.
1. CCCCO
2. CCCCCO

RESULT:
1. 827.7
2. 831.6

* * *

# REPORTED CONDITIONS: 288.15 K; 30000 kPa; Liquid; Vibrating tube method
OBSERVATION TYPE: mass density (kg/m3)
Give bare numbers, in kg/m3.

Provide mass density for all items below, preserving their order.
1. CCCCCCO
2. CCO
3. CCCCCCCO
4. CCCO
5. CCCCCCCCCCO

RESULT:
840.2
816.6
843.1
828.7
848.6
